target: human CD1a expressed on cells (human, UniProt P06126 17-327); assay: cell-based or functional assay
Sequence (P06126 17-327): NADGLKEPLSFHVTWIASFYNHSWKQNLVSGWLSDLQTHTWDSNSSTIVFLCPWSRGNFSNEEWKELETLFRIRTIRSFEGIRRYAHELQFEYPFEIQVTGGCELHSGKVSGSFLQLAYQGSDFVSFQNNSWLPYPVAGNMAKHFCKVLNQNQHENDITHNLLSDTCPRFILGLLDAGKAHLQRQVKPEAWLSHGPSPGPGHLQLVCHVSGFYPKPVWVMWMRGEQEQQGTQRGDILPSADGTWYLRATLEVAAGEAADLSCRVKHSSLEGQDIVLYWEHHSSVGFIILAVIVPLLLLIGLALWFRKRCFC

Binder: Ab624 (antibody, human IgG1, kappa, V domains shown, Optimized variant of Ab138; human IgG1 effector null / kappa; HC with or without terminal lysine) VH: EVQLVESGGGLVQPGGSLRLSCAASGFDFTDHYMHWVRQAPGKGLEWVAHTRDKAGGYTTESNPAVKGRFTISRDNAKNSLYLQMNSLRAEDTAVYYCARETTRIPTGWFAYWGQGTLVTVSS VL: DIQMTQSPSSLSASVGDRVTITCLASEDIYFDLAWYQQKPGKAPKLLIYGGDRLKEGVPSRFSGSGSGTDYTLTISSLQPEDFATYYCQQSYSYPYTFGQGTKLEIKR
Inhibition of IL-2 production, IC50 [nM]: 0.17

Binder: Ab657 (antibody, human IgG1, kappa, V domains shown, Optimized variant of Ab138; human IgG1 effector null / kappa; HC with or without terminal lysine) VH: EVQLVESGGGLVQPGGSLRLSCAASGFTFTDHYMHWVRQAPGKGLEWVAHTRDKAGGYTTESNPAVKGRFTISRDNAKNSLYLQMNSLRAEDTAVYYCARETTRIPTGWFAYWGQGTLVTVSS VL: DIQMTQSPSSLSASVGDRVTITCLASEDIYFDLAWYQQKPGKAPKLLIYGASTPKDGVPSRFSGSGSGTDYTLTISSLQPEDFATYYCQQSEKYPYTFGQGTKLEIKR
Inhibition of IL-2 production, IC50 [nM]: 0.19

Binder: Ab610 (antibody, human IgG1, kappa, V domains shown, Optimized variant of Ab138; human IgG1 effector null / kappa; HC with or without terminal lysine) VH: EVQLVESGGGLVQPGGSLRLSCAASGFDFTDHYMHWVRQAPGKGLEWVAHTRDKAGGYTTESNPAVKGRFTISRDNAKNSLYLQMNSLRAEDTAVYYCARETTRIPTGWFAYWGQGTLVTVSS VL: DIQMTQSPSSLSASVGDRVTITCLASEDIYFDLAWYQQKPGKAPKLLIYGGDRLKEGVPSRFSGSGSGTDYTLTISSLQPEDFATYYCQQSESYPYTFGQGTKLEIKR
Inhibition of IL-2 production, IC50 [nM]: 0.09

# credit: patent US20220112291A1
